- assayed-target: human factor Xa (Homo sapiens)
- Sequence (P00742 235-488 limits assumed): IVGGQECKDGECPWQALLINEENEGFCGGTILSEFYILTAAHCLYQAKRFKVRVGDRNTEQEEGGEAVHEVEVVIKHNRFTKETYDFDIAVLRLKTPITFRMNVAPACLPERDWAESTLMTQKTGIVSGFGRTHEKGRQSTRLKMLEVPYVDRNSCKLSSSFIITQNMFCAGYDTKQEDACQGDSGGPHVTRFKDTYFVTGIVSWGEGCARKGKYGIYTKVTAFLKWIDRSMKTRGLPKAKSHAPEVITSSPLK
- Sequence (P00742 41-179 partner limits assumed): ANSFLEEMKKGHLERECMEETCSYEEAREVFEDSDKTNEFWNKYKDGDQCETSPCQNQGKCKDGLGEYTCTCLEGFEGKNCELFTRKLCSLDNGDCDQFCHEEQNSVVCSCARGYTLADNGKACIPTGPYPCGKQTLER
pIC50 values, listed per item
// pIC50: -log10(molar conc.)

[[record]]
compound = "C[C@@]1(C(=O)Nc2ccc(-n3ccccc3=O)cc2F)CC=NN1C(=O)Nc1ccc(Cl)cc1 [(S) enantiomer]"
assay_value = 6.85


Find the recorded pIC50 belonging to C[C@]1(C(=O)Nc2ccc(-n3ccccc3=O)cc2F)CC=NN1C(=O)Nc1ccc(Cl)cc1 [(R) enantiomer] and report it.
9.01

Reference source for all entries: patent US20080171773A1
